# credit: patent US9409952B2

assay: PAMPA (parallel artificial membrane permeability assay); type: in vitro ADME; details: PAMPA; membrane permeation rate (Pe); 50 mM MOPSO buffer pH 6.5 with 5.0% glycocholic acid, 37° C., 18 hours; read-out: iPAMPA Pe
Starred links: 1 amine or outer side, 2 acyl side, 3 side chain; linkers in the order of their positions; H or OH if unused. Positions of bridges follow the written chain, without caps; N, C: chain ends. Non-standard residues stand in square brackets, D forms with d. Residues, ends and D or L forms follow the SMILES beside them. *: point of attachment. NMeF = CN[C@@H](Cc1ccccc1)C(=O)O; NMeβAla = CN(CCC(=O)[*:2])[*:1]; NMeL = CN[C@@H](CC(C)C)C(=O)O; NMeA = CN[C@@H](C)C(=O)O; Piperidide = C1CCN(*)CC1

compound: CC[C@H](C)[C@@H]1NC(=O)[C@H](Cc2ccccc2)N(C)C(=O)[C@H](C)N(C)C(=O)[C@H](CC(C)C)N(C)C(=O)[C@H](Cc2ccccc2)N(C)C(=O)CCN(C)C(=O)C[C@@H](C(=O)N(C)[C@@H](Cc2ccccc2)C(=O)N(C)[C@@H](Cc2ccccc2)C(=O)N[C@@H](C)C(=O)N2CCCCC2)NC(=O)[C@H]([C@@H](C)O)NC(=O)[C@H](CC(C)C)N(C)C(=O)[C@H](CC(C)C)N(C)C1=O [DP-499] ([NMeβAla][NMeF][NMeL][NMeA][NMeF]I[NMeL][NMeL]TD[NMeF][NMeF]A-Piperidide; lactam N-10)
Papp at 18 hours, 50 µM: 0.31 ×10⁻⁶ cm/s

====

test: Metabolic stability in human hepatic microsome; type: in vitro ADME; details: microsomes, pH 7.4; human hepatic microsome, NADPH(+); read-out: CL NADPH(+)
Starred links: 1 amine or outer side, 2 acyl side, 3 side chain; linkers in the order of their positions; H or OH if unused. Positions of bridges follow the written chain, without caps; N, C: chain ends. Non-standard residues stand in square brackets, D forms with d. Residues, ends and D or L forms follow the SMILES beside them. *: point of attachment. NMePhe(3-Cl) = CN[C@@H](Cc1cccc(Cl)c1)C(=O)O; NMeF = CN[C@@H](Cc1ccccc1)C(=O)O; NMeβAla = CN(CCC(=O)[*:2])[*:1]; NMeL = CN[C@@H](CC(C)C)C(=O)O; Piperidide = C1CCN(*)CC1

molecule: CC[C@H](C)[C@H](NC(=O)[C@H](CC(C)C)N(C)C(=O)[C@@H](NC(=O)[C@H](Cc1ccccc1)N(C)C(=O)[C@@H]1CC(=O)N(C)CCC(=O)N(C)[C@@H](Cc2cccc(Cl)c2)C(=O)N[C@@H](CC(C)C)C(=O)N[C@@H]([C@@H](C)O)C(=O)N[C@@H](CC(C)C)C(=O)N[C@@H]([C@@H](C)CC)C(=O)N(C)[C@@H](CC(C)C)C(=O)N(C)[C@@H](CC(C)C)C(=O)N1)[C@@H](C)CC)C(=O)N1CCCCC1 [DP-941] ([NMeβAla][NMePhe(3-Cl)]LTLI[NMeL][NMeL]D[NMeF]I[NMeL]I-Piperidide; lactam N-9)
result.unit: µL/min/mg
microsomal CLint at 1 uM: 49

====

experiment: in vivo; details: male, C57BL/6J, mouse, po, 20 mg/kg
Positions of bridges follow the written chain, without caps; N, C: chain ends. Non-standard residues stand in square brackets, D forms with d. Residues, ends and D or L forms follow the SMILES beside them. *: point of attachment. NMeF = CN[C@@H](Cc1ccccc1)C(=O)O; NMeI = CC[C@H](C)[C@H](NC)C(=O)O; NMeL = CN[C@@H](CC(C)C)C(=O)O; NMeV = CN[C@H](C(=O)O)C(C)C; NMeA = CN[C@@H](C)C(=O)O; Piperidide = C1CCN(*)CC1; Sar = CNCC(=O)O; tBu = CC(C)(C)*
property.name: half-life (h)

molecule: CC[C@H](C)[C@H]1C(=O)N[C@@H]([C@@H](C)O)C(=O)N(C)CC(=O)N(C)[C@@H](CC(C)C)C(=O)N[C@H](C(=O)N2CCCCC2)CC(=O)N(C)[C@@H](C)C(=O)N[C@@H](CC(C)C)C(=O)N(C)[C@@H](CC(C)C)C(=O)N(C)[C@@H](Cc2ccccc2)C(=O)N[C@@H](C)C(=O)N(C)[C@@H](Cc2ccccc2)C(=O)N1C [DP-101] ([NMeA]L[NMeL][NMeF]A[NMeF][NMeI]T[Sar][NMeL]D-Piperidide; lactam N-11)
result.unit: h
measured: 2.27
--
molecule: CC(C)C[C@H]1C(=O)N2CCC[C@H]2C(=O)N(C)[C@@H](CC(C)C)C(=O)N[C@@H](C)C(=O)N(C)[C@@H](C(C)C)C(=O)N[C@H](C(=O)N2CCCCC2)CC(=O)N(C)[C@@H](C)C(=O)N[C@@H]([C@@H](C)O)C(=O)N(C)CC(=O)N(C)[C@@H](Cc2ccccc2)C(=O)N(C)[C@@H](Cc2ccccc2)C(=O)N1C [DP-67] ([NMeA]T[Sar][NMeF][NMeF][NMeL]P[NMeL]A[NMeV]D-Piperidide; lactam N-11)
result.unit: h
measured: 4.36
--
molecule: CC[C@H](C)[C@H]1C(=O)N[C@@H](COC(C)(C)C)C(=O)N(C)[C@@H](Cc2ccccc2)C(=O)N(C)[C@@H](C(C)C)C(=O)N[C@H](C(=O)N2CCCCC2)CC(=O)N(C)[C@@H](C)C(=O)N(C)[C@@H](Cc2ccccc2)C(=O)N[C@@H](CC(C)C)C(=O)N(C)[C@@H](CC(C)C)C(=O)N[C@@H]([C@@H](C)O)C(=O)N(C)CC(=O)N1C [DP-47] ([NMeA][NMeF]L[NMeL]T[Sar][NMeI]S(tBu)[NMeF][NMeV]D-Piperidide; lactam N-11)
result.unit: h
measured: 3.88

====

Parameter Papp at 18 hours, 50 µM: see the listing below.
experiment: PAMPA (parallel artificial membrane permeability assay); assay type: in vitro ADME; conditions: PAMPA; membrane permeation rate (Pe); 50 mM MOPSO buffer pH 6.5 with 5.0% glycocholic acid, 37° C., 18 hours; read-out: iPAMPA Pe
Positions of bridges follow the written chain, without caps; N, C: chain ends. Non-standard residues stand in square brackets, D forms with d. Residues, ends and D or L forms follow the SMILES beside them. *: point of attachment. NMeF = CN[C@@H](Cc1ccccc1)C(=O)O; NMeI = CC[C@H](C)[C@H](NC)C(=O)O; NMeL = CN[C@@H](CC(C)C)C(=O)O; NMeV = CN[C@H](C(=O)O)C(C)C; NMeA = CN[C@@H](C)C(=O)O; Piperidide = C1CCN(*)CC1; dNMeA = CN[C@H](C)C(=O)O; NPrGly = CCCNCC(=O)O; Sar = CNCC(=O)O; tBu = CC(C)(C)*

compound: CC(C)C[C@H]1C(=O)N[C@@H](COC(C)(C)C)C(=O)N(C)[C@@H](Cc2ccccc2)C(=O)N(C)[C@@H](C)C(=O)N[C@@H](Cc2ccccc2)C(=O)N(C)[C@@H](C(C)C)C(=O)N[C@H](C(=O)N2CCCCC2)CC(=O)N(C)[C@H](C)C(=O)N[C@@H]([C@@H](C)O)C(=O)NCC(=O)N1C [DP-340] ([dNMeA]TG[NMeL]S(tBu)[NMeF][NMeA]F[NMeV]D-Piperidide; lactam N-10)
result.unit: ×10⁻⁶ cm/s
Papp at 18 hours, 50 µM: 31
--
compound: CCCN1CC(=O)N[C@@H](CC(C)C)C(=O)N[C@@H]([C@@H](C)O)C(=O)N(C)CC(=O)N(C)[C@@H](Cc2ccccc2)C(=O)N[C@@H](C)C(=O)N(C)[C@@H](Cc2ccccc2)C(=O)N(C)[C@@H](CC(C)C)C(=O)N(C)[C@@H]([C@@H](C)CC)C(=O)N(C)[C@@H](CC(C)C)C(=O)N[C@H](C(=O)N2CCCCC2)CC1=O [DP-544] ([NPrGly]LT[Sar][NMeF]A[NMeF][NMeL][NMeI][NMeL]D-Piperidide; lactam N-11)
result.unit: ×10⁻⁶ cm/s
Papp at 18 hours, 50 µM: 42

====

Parameter log10 of microsomal CLint at 1 uM: see the listing below.
assay: Metabolic stability in human hepatic microsome; format: in vitro ADME; details: microsomes, pH 7.4; human hepatic microsome, NADPH(+); read-out: CL NADPH(+)
Starred links: 1 amine or outer side, 2 acyl side, 3 side chain; linkers in the order of their positions; H or OH if unused. Positions of bridges follow the written chain, without caps; N, C: chain ends. Non-standard residues stand in square brackets, D forms with d. Residues, ends and D or L forms follow the SMILES beside them. *: point of attachment. Phe(4-(CH2)5CO) = O=C([C@H](Cc1ccc(CCCCCC(=O)[*:3])cc1)N[*:1])[*:2]; NMeF = CN[C@@H](Cc1ccccc1)C(=O)O; NMeGABA = CN(CCCC(=O)[*:2])[*:1]; NMeI = CC[C@H](C)[C@H](NC)C(=O)O; NMeL = CN[C@@H](CC(C)C)C(=O)O; NMeV = CN[C@H](C(=O)O)C(C)C; NMeA = CN[C@@H](C)C(=O)O; Piperidide = C1CCN(*)CC1; β3hA = C[C@H](N)CC(=O)O; Sar = CNCC(=O)O; tBu = CC(C)(C)*
property.name: log10 of microsomal CLint at 1 uM (log10 of the value in µL/min/mg)

compound: CC(C)C[C@H]1C(=O)N[C@H](C(=O)N2CCCCC2)CC(=O)N(C)CCCC(=O)N(C)[C@@H](Cc2ccccc2)C(=O)N[C@@H]([C@@H](C)O)C(=O)N(C)CC(=O)N[C@@H](COC(C)(C)C)C(=O)N1C [DP-535] ([NMeGABA][NMeF]T[Sar]S(tBu)[NMeL]D-Piperidide; lactam N-7)
measured: 2.11
//
compound: CC[C@H](C)[C@H]1C(=O)N(C)[C@@H](CC(C)C)C(=O)N[C@@H](Cc2ccccc2)C(=O)N[C@@H]([C@@H](C)O)C(=O)N[C@@H](CC(C)C)C(=O)N(C)[C@@H](Cc2ccccc2)C(=O)N(C)[C@@H](C(C)C)C(=O)N[C@H](C(=O)N2CCC[C@H]2C(=O)N[C@H](C(=O)N[C@@H](C)C(=O)N2CCCCC2)C(C)C)CC(=O)N[C@H](C)C(=O)N[C@@H](C)C(=O)N1C [DP-671] ([dA]A[NMeI][NMeL]FTL[NMeF][NMeV]DPVA-Piperidide; lactam N-10)
measured: 1.59
//
compound: CC[C@H](C)[C@@H]1NC(=O)[C@H](CC(C)C)N(C)C(=O)[C@H](Cc2ccccc2)N(C)C(=O)CCCCCc2ccc(cc2)C[C@@H](C(=O)N2CCCCC2)NC(=O)[C@H](CC(C)C)N(C)C(=O)[C@H](C)N(C)C(=O)[C@H]([C@@H](C)O)NC(=O)[C@H](Cc2ccccc2)N(C)C(=O)[C@H](C)N(C)C1=O [DP-835] ([NMeF][NMeL]I[NMeA][NMeF]T[NMeA][NMeL][Phe(4-(CH2)5CO)]-Piperidide; lactam N-9)
measured: 2.70
//
compound: CC[C@H](C)[C@H](NC(=O)[C@H](CC(C)C)N(C)C(=O)CN(C)C(=O)[C@@H]1CC(=O)N[C@H](C(C)C)C(=O)N[C@@H](C)C(=O)N[C@@H]([C@@H](C)O)C(=O)N(C)[C@@H](C)C(=O)N[C@@H](Cc2ccccc2)C(=O)N(C)[C@@H](CC(C)C)C(=O)N(C)[C@@H](Cc2ccccc2)C(=O)N(C)[C@@H](CC(C)C)C(=O)N1)C(=O)N1CCCCC1 [DP-576] ([dV]AT[NMeA]F[NMeL][NMeF][NMeL]D[Sar][NMeL]I-Piperidide; lactam N-9)
measured: 1.23
//
compound: CC(C)C[C@@H]1NC(=O)[C@H](Cc2ccccc2)N(C)C(=O)[C@H](C)N(C)C(=O)C[C@H](C)NC(=O)[C@H]([C@@H](C)O)NC(=O)[C@H](CC(C)C)N(C)C(=O)[C@H](Cc2ccccc2)NC(=O)[C@H](CC(C)C)N(C)C(=O)[C@H](CC(C)C)N(C)C1=O [DP-791] (cyclo(F[NMeL]T[β3hA][NMeA][NMeF]L[NMeL][NMeL]))
measured: 2.90
